// reported pKd for each item listed
# STUDY_TARGET: Cry78Aa (Cry78Aa1) (Bacillus thuringiensis)
# Construct: ITC section says only 'Cry78Aa protein'
# Sequence (A0A3S6Q0Y2 1-359 limits assumed): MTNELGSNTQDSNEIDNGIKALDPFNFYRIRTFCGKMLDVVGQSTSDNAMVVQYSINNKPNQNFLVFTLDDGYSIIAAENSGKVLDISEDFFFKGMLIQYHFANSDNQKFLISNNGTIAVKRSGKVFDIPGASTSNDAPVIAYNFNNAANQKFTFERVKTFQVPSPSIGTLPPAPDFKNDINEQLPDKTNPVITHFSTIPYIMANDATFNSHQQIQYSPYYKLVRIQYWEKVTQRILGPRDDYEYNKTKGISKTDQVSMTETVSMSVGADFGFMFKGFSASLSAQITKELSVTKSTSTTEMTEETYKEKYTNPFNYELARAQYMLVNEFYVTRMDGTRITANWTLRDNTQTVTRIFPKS
# RUN_CONDITIONS: 20 mM Tris-HCl pH 8.0, 25 °C; one-site binding model; 50 mM sugar into 150 µM protein
pKd: −log10 of the molar value.

CC(=O)N[C@H]1C(O)O[C@H](CO)[C@H](O)[C@@H]1O (some centres unmarked) [GalNAc]: ~2.01

Could you now look at the following compound, please?
In plain terms, OC[C@H]1O[C@@H](O[C@H]2[C@H](O)[C@@H](O)C(O)O[C@@H]2CO)[C@H](O)[C@@H](O)[C@H]1O (some centres unmarked) [lactose] has a documented pKd of ~1.99
